molecular target: DC-SIGN ECD (Homo sapiens)
Sequence (Q9NNX6 66-404): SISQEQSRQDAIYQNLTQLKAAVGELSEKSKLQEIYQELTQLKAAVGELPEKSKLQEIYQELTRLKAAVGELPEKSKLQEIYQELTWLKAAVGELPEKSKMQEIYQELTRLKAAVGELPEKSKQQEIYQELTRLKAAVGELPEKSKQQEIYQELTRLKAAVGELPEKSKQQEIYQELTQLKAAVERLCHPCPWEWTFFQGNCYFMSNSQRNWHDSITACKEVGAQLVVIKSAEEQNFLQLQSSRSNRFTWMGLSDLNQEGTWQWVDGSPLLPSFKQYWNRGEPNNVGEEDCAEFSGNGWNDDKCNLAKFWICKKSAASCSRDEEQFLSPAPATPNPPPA

{"columns": ["Compound", "IC50, µM"],
 "data": [
  ["CC(=O)N[C@@H](CCCCn1cc(CO[C@H]2O[C@H](CO)[C@@H](O)[C@H](O[C@H]3O[C@H](CO)[C@@H](O)[C@H](O)[C@@H]3O)[C@@H]2O)nn1)C(=O)NCC(=O)N[C@@H](CCCCn1cc(CO[C@H]2O[C@H](CO)[C@@H](O)[C@H](O[C@H]3O[C@H](CO)[C@@H](O)[C@H](O)[C@@H]3O)[C@@H]2O)nn1)C(=O)NCC(=O)N[C@@H](CCCCN)C(N)=O [C2]", 567]
]}
